I'd appreciate it if you could supply binding signal values for the items below.
Target: SIX1 homeodomain (reference allele) (human, UniProt Q15475 108-198)
Sequence: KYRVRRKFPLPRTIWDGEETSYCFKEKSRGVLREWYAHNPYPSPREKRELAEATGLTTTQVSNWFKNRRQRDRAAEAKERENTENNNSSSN
Experiment: universal protein binding microarray; Universal all-10-mer PBM (8x60K, AMADID 030236), 300 nM GST-tagged protein, Alexa Fluor 488 anti-GST; buffer, salt, pH and temperature not stated (as in Berger); high values mean tight binding
Settings: protein: ivt; tags: N-terminal GST; dsDNA, one strand shown
The full ranking holds about 33,000 sequences; the median of “e-score” is about -0.053, and the highest 2% start at about 0.38. The sample holds the highest values, similar sequences and a random draw of the others, so the mix is not that of the screen.
Answer with the value and then the unit.

GET /value?item= GATATCAC &field=binding signal returns 0.476 E-score

GET /value?item= AAGATACG &field=binding signal returns 0.322 E-score

Entry GATATAGC ; binding signal = 0.368 E-score

GTGTCATA has a reported binding signal of 0.369 E-score

The reported value for ACACGGGC in terms of binding signal is 0.179 E-score

Quick note, binding signal for ACCATATA landed at 0.274 E-score

Form: sequence = AGATATTA ; binding signal = 0.234 E-score

Memo: CCGGAATA , reported binding signal: 0.162 E-score

Memo: TGATATAA , reported binding signal: 0.297 E-score

// field: binding signal; key: AGTCGATA ; value = 0.257 E-score

The recorded binding signal for entry GACGATCC equals 0.387 E-score

Value of binding signal reported for the sequence AACGATAT is 0.408 E-score

For this sequence ( ACTTGATA ), measured binding signal is 0.374 E-score

Query ATCTTCAG yields binding signal of 0.153 E-score

Form: sequence = AACGATCT ; binding signal = 0.176 E-score

Briefly, binding signal measured for AATATCTA : 0.259 E-score

Reported binding signal ( AGGCGTAT ) = 0.318 E-score

Notebook: ACACCGCC , binding signal read as 0.321 E-score

Item: GCAGATCA | binding signal: 0.369 E-score

Lab note: measured binding signal of GGTGAGAA was 0.162 E-score

Notebook: GCTATCAC , binding signal read as 0.357 E-score

The reported value for CTTAATAC in terms of binding signal is 0.281 E-score

Notebook: AACGATCC , binding signal read as 0.333 E-score

Value of measured binding signal for the entry AGATCGCC : 0.288 E-score

Lab book: binding signal of CAATATCA noted as 0.306 E-score

Measured binding signal of GGTAATAC : 0.297 E-score

Record AAGATACC . Reported binding signal: 0.426 E-score

Memo: CCTATATC , reported binding signal: 0.352 E-score

binding signal in this record for ACACCACG : 0.263 E-score

Lab note: measured binding signal of ATCTCCAC was 0.204 E-score

Sample ATATCGCG ; binding signal observed: 0.422 E-score

Measured binding signal, CGATATTA : 0.365 E-score

So for AACGATAC , the logged binding signal turned out to be 0.435 E-score

Consider ATACCGCG . Its measured binding signal is 0.377 E-score

// binding signal lookup, sequence = CATTGCGG , result: 0.222 E-score

Value of binding signal reported for the sequence GTATCGCA is 0.431 E-score

According to the records, this sequence GAGATCGC displays binding signal of 0.27 E-score

The recorded binding signal for ATACCGAA is 0.329 E-score

// binding signal value for CAGATCGA : 0.277 E-score

For this sequence ( TACGATAA ), measured binding signal is 0.175 E-score

The sequence identified as GATATTAA registered its binding signal at 0.31 E-score

For this sequence ( GATATTGC ), measured binding signal is 0.323 E-score

GATGGGGA has a reported binding signal of 0.191 E-score

// binding signal value for TATATCAA : 0.361 E-score

binding signal for GATCAAAA is 0.234 E-score

// recorded binding signal for AAAATACC : 0.181 E-score

Per the records, this sequence ( CTATACGA ) has binding signal equal to 0.18 E-score

Notebook: AGTTGATA , binding signal read as 0.406 E-score

Lab note: AATATCGG gave binding signal of 0.312 E-score

Lab book: binding signal of AATATCGC noted as 0.299 E-score

Consider CGTATTTA . Its measured binding signal is 0.169 E-score

Entry AGATAGTA , binding signal reported as 0.24 E-score

Summary for this sequence, AATATGGA : binding signal is 0.158 E-score

// sample GATATTAC , its binding signal was 0.319 E-score

// recorded binding signal for CGATGGAG : 0.167 E-score

// ATCATTCC : binding signal value = 0.291 E-score

Summary for this sequence, ATAGCCAA : binding signal is 0.218 E-score

The sequence listed as ACACCGCG shows binding signal equal to 0.283 E-score

# sequence ATCGGAAT ; its binding signal = 0.172 E-score

binding signal recorded for this sequence, CATATCGA , is 0.417 E-score

// binding signal lookup, sequence = GAGATACA , result: 0.332 E-score

In plain terms, ACACCGCA has a documented binding signal of 0.351 E-score

# binding signal (sequence: CACGATCC ) is 0.342 E-score

Data point: AGATCTGC ; binding signal = 0.204 E-score

Form field binding signal, entry AAATATCC : 0.271 E-score

Reported binding signal ( GATATGGC ) = 0.418 E-score

What the record says about GATCGTAA : binding signal is 0.216 E-score

Recorded binding signal (sequence ATAGGGTG ): 0.161 E-score

So for TGATAGCA , the logged binding signal turned out to be 0.323 E-score

# binding signal of CGTTGATA = 0.334 E-score

Sure, the documented binding signal for ATAGACAC is 0.285 E-score

binding signal for ATACCGAG is 0.304 E-score

Value of binding signal reported for the sequence CCCTTCGG is 0.226 E-score

ATACGTGC has a reported binding signal of 0.358 E-score

GET /value?item= AGATATCC &field=binding signal returns 0.442 E-score

Lab book: binding signal of CATATAGC noted as 0.162 E-score

Reported binding signal for AACGACAC was 0.276 E-score

GGTATGTA has a reported binding signal of 0.213 E-score

Record AATATCGT , field binding signal: 0.309 E-score

Measured binding signal of GGATCGCA : 0.366 E-score

binding signal reading for GCTTGATA : 0.351 E-score

// binding signal lookup, sequence = GAGATACC , result: 0.441 E-score

Form field binding signal, entry ACATCGCA : 0.152 E-score

// binding signal lookup, sequence = CGCAGATC , result: 0.214 E-score

What the record says about ATCGCGCG : binding signal is 0.213 E-score

binding signal recorded for this sequence, AGGATTAA , is 0.243 E-score

Record CAGATCAA , field binding signal: 0.298 E-score

Entry CATATCTA , binding signal reported as 0.322 E-score

binding signal in this record for AACGATAG : 0.175 E-score

# binding signal (sequence: GATATCTA ) is 0.392 E-score

Item: ATCCGGCC | binding signal: 0.316 E-score
